Value source: patent US20210040184A1

Biological target: Clade C DU172.17 gp120 protein (HIV-1 Clade C, DU172.17)
Experiment: BLI (Octet), IgG on anti-hIgG Fc sensor, gp120 analyte, 1:1 fit
measurement label: koff
Entry format: amount then unit.

# annotated cases, reported koff shown
• NglycoSA (antibody, V domains shown) VH: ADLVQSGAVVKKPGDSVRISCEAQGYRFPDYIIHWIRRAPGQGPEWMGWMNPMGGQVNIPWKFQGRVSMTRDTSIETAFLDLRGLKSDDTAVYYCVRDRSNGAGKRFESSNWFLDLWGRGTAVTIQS VL: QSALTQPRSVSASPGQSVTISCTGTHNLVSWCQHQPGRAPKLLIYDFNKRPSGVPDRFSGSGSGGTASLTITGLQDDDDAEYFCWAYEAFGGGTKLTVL = 0.000303 s⁻¹
• Germ12 (antibody, V domains shown) VH: QVDLVQSGAVVKKPGDSVRVSCEAQGYRFPDYIIHWIRRAPGQGPEWMGWMNPMGGQVNIPWKFQGRVSMTRDTSIETAYMDLRGLRSDDTAVYYCVRDRSNGSGKRFESSNWFLDLWGRGTLVTVSS VL: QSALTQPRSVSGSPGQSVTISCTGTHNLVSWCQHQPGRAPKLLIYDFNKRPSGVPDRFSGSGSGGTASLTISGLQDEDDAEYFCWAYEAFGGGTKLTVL = 0.000438 s⁻¹

From here, focus on the item given below.
Exercise: Record request: koff value, item NglycoND (antibody, V domains shown) VH: ADLVQSGAVVKKPGDSVRISCEAQGYRFPDYIIHWIRRAPGQGPEWMGWMNPMGGQVNIPWKFQGRVSMTRDTSIETAFLDLRGLKSDDTAVYYCVRDRSDGSGKRFESSNWFLDLWGRGTAVTIQS VL: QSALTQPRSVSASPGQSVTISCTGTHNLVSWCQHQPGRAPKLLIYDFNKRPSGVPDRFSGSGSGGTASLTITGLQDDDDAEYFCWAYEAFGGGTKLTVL
Solution: 0.0183 s⁻¹
